# Method: Cell viability assay (MTS)
# Type: cell-based
# Conditions used: human, 10 µM, non-infected Huh7 cells, normalized to DMSO
Label fulfilled when viability at 10 µM < 50%; otherwise not fulfilled.

Clc1cccc(CNc2ncnc3c2ccn3Cc2ccccc2)c1 : not fulfilled

Field: below-cutoff. Rule: recorded viability at 10 µM strictly less than 50%. Subject: FC(F)(F)c1ccc(Cn2ccc3c(NCc4cccc(Cl)c4)ncnc32)cc1
not fulfilled

Lab note: viability at 10 µM threshold 50%. Does this molecule come in strictly under it? N#Cc1ccc(Cn2ccc3c(NCc4cc(Cl)ccc4Cl)ncnc32)cc1
fulfilled

Does Cc1cc(N)c2cc(NC(=O)Nc3ccc4nc(C)cc(N)c4c3)ccc2n1 [NSC 12155, reference compound] have viability at 10 µM strictly under 50%?
not fulfilled
